Entry source: PubChem BioAssay

- methodDescription: MM1S cell viability effects, profiling panel, calcein-AM fluorescence, 48 h, basal (AID 1165);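 also: viability of MM1S multiple myeloma cells under basal unstimulated conditions; test concentration not given here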
- conditionParameters: higher = more signal
observedProperty: z-score

molecule	observed
CC(=O)NCCCC[C@@H]1NC(=O)[C@H]2C[C@@H](C(=O)NCCCCCNC(=O)CS)[C@@H](c3cccc(OCCO)c3)N2C1=O	0.0637
C=C(CCCC)C(=O)CC[C@H](OC(C)=O)c1ccc(OCCO)cc1	-2.86

Request: I am curious: what z-score value has been reported for C=CCC(OC(C)=O)[C@@H]1[C@@H](N(Cc2cc3ccccc3o2)C(=O)c2ccc(-c3ccccc3)cc2)c2cc(OCCCO)ccc2N1C(=O)Cc1ccc(OC)cc1 (stereo partly drawn) ?
Result: 0.0213

* * *

So I've got a bunch of molecules here, and I need their composite z-score values.
- testedSystem: Follistatin-related protein 3 (Homo sapiens) (UniProt O95633)
- Sequence (O95633 whole entry, looked up): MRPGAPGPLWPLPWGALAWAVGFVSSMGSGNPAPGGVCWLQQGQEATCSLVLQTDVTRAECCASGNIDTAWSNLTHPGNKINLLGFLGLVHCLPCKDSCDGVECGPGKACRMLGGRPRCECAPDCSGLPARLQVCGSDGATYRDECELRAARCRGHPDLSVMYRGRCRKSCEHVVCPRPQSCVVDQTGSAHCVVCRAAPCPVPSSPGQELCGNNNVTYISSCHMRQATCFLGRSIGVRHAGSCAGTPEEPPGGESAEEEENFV
- methodDescription: FSTL3 binders on small-molecule microarrays, primary screen, biochemical, small-molecule microarray, 635 nm fluorescence (AID 1105);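 also: score merges emission near 667 nm and signal to noise per printed spot across three slides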
- conditionParameters: FSTL3 binding, higher = more signal
Answers are plain numbers.

In the examples that follow, each entry is paired with its recorded composite z-score.
molecule	composite z-score
C[C@]1(C(=O)NCC(F)(F)F)c2ccccc2C(=O)N(Cc2ccccc2)[C@H]1c1ccc(CO)cc1	-1.47
COCCOC(=O)N1C(=O)[C@@]2(c3cc(C#CC4(O)CCCCCC4)ccc31)[C@H](c1ccc(OCCO)cc1)N1[C@H](c3ccccc3)[C@H](c3ccccc3)OC(=O)[C@H]1[C@@H]2C(=O)Nc1nc2ccccc2s1	1.33
CCOC(=O)C1=C[C@@H](C(C)(C)C)N(S(=O)(=O)c2ccc(C)cc2)[C@H]1c1ccccc1	1.26
COCCOC(=O)N1C(=O)[C@@]2(c3ccccc31)[C@H](c1ccc(OCCO)cc1)N1[C@H](c3ccccc3)[C@H](c3ccccc3)OC(=O)[C@H]1[C@@H]2C(=O)N1CCCCCCC1	1.76

Let us move to another entry and its composite z-score.
Request: I am curious: what composite z-score value has been reported for C=C(C)C1CCC(C(O)C2C=CC3C(=O)N(C)C(=O)C3N2Nc2cc(OC)c(OC)c(OC)c2)CC1 (stereo not given) ?
Result: 1.15

* * *

- methodDescription: small-molecule microarray binders of probe aWnt5a, primary screen, biochemical, biotinylated probe, 635/667 nm fluorescence (AID 1113);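 also: score merges 667 nm fluorescence intensity with signal-to-noise per printed feature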
- conditionParameters: higher = more signal
So I've got a bunch of compounds here, and I need their composite z-score values.
Numbers only.

In the examples that follow, each entry is paired with its recorded composite z-score.
compound	composite z-score
CC(C)C[C@@H]1NC(=O)[C@H]2C[C@@H](C(=O)NCCCCCN)[C@@H](c3cccc(OCCO)c3)N2C1=O	-0.103
CCCCNC(=O)c1ccc(C#C[Si](C(C)C)(C(C)C)C(C)C)c(OC(C)=O)c1	-0.0977
COCCOC(=O)N1C(=O)[C@@]2(c3cc(C#CCNC(N)=O)ccc31)[C@H](c1ccc(O)cc1)N1[C@H](c3ccccc3)[C@H](c3ccccc3)OC(=O)[C@H]1[C@@H]2C(=O)N1CCN(c2ncccn2)CC1	-0.219
COc1ccc(C(=O)Nc2cccc(CN3C(=O)[C@]4(O[C@H](CCn5cc([C@H](O)c6ccccc6)nn5)[C@@H]([Si](C)(C)c5ccc(OC)cc5)[C@@H]4C)c4ccccc43)c2)cc1	-0.13
C=CCOC(=O)[C@H]1[C@@H]2C(=O)O[C@@H](c3ccccc3)[C@@H](c3ccccc3)N2[C@@H](c2ccc(OCCOC(=O)[C@H]3C[C@H]4C(=O)N[C@@H](CCCCNC(C)=O)C(=O)N4[C@H]3c3cccc(OCCO)c3)cc2)[C@]12C(=O)Nc1ccc(I)cc12	0.0825
C=CC1c2cc(O)c(OC)cc2CCN1Cc1ccc([N+](=O)[O-])o1 (configuration not stated)	0.0306
C[C@@]12COC[C@]13C=C(Br)[C@H](C2)[C@@]1(CO1)C3=O	-0.176
NC(=O)N1C(=O)C2C(C1=O)C1C=C(CCCO)C2C(C2CC2)N1Cc1cccc(OC(F)(F)F)c1 (configuration not stated)	-0.173
[N-]=[N+]=NCc1ccccc1[C@H]1OC(c2ccc(OCCCO)cc2)=N[C@@]1(Cc1ccccc1)C(=O)NCCN1CCOCC1	0.0711
CCOC(=O)C1=C[C@@H](c2ccccc2)N(S(=O)(=O)c2ccc(C)cc2)[C@H]1c1ccccc1	-0.124

Record composite z-score per entry; entries follow.
1. COC(=O)c1c2oc(c1C(=O)OC)C(=O)N1CCC[C@H]1Cn1nncc1CN(Cc1ccccc1)C(=O)N[C@H](CO)CC2
2. O=C1C[C@@](C(=O)NCC(F)(F)F)(c2ccc([N+](=O)[O-])cc2)[C@@H](c2ccc(CO)cc2)N1CC12CC3CC(CC(C3)C1)C2
3. COc1ccc(C(=O)Nc2cccc(CN3C(=O)[C@@]4(O[C@@H](CC(=O)N(CCO)Cc5ccccc5)[C@H]([Si](C)(C)c5ccc(OC)cc5)[C@H]4C)c4ccccc43)c2)cc1
4. CC(C)CNC(=O)[C@@]1(C)c2ccccc2C(=O)N(Cc2cc(C(F)(F)F)cc(C(F)(F)F)c2)[C@H]1c1ccc(CO)cc1
5. C[C@]1(C(=O)NCCN2CCOCC2)c2ccccc2C(=O)N(Cc2cc(F)cc(C(F)(F)F)c2)[C@H]1c1ccc(CO)cc1
6. CCOC(=O)C1=CC[C@@H](c2ccccc2)N(S(=O)(=O)c2ccc(C)cc2)[C@H]1C=Cc1ccccc1
7. COC(=O)[C@@]1(Cc2ccc(F)cc2)[C@H]2c3cc(C(=O)N(C)C)n(Cc4ccc(O)c(OC)c4)c3C[C@H]2CN1C(=O)c1ccccc1

Result:
-0.0738
0.0044
-0.187
-0.175
-0.148
0.127
0.0776
